- assayDetails: Tissue distribution of SHR9146 in mice after oral gavage of 40 mg/kg
- Assay type: in vivo, ICR mice
- measurementParameters: male, ICR, mouse, heart, po, 40 mg/kg, male, 1 h, 40 mg/kg oral gavage, Mean (n=3); read-out: SHR9146 concentration in Heart
quantity: concentration at 1 h (ng/g)

• OCCn1cc(-c2ccc(N3CCC([C@H]4c5c(F)cccc5-c5cncn54)CC3)cc2)cn1 = 7320

###

- assayDetails: Tissue distribution of SHR9146 in mice after oral gavage of 40 mg/kg
- Format: in vivo, ICR mice
- measurementParameters: male, ICR, mouse, stomach, po, 40 mg/kg, male, 3 h, 40 mg/kg oral gavage, Mean (n=3); read-out: SHR9146 concentration in Stomach
quantity: concentration at 3 h (ng/g)

* OCCn1cc(-c2ccc(N3CCC([C@H]4c5c(F)cccc5-c5cncn54)CC3)cc2)cn1 | 10200

###

- assayDetails: Plasma pharmacokinetics of SHR9146 in mice (LC-MS/MS, non-compartmental analysis)
- Format: in vivo, ICR mice
- measurementParameters: both sexes, ICR, mouse, plasma, iv, 5 mg/kg, 5 mg/kg i.v. single dose; all mice (Totol, 3 male + 3 female); plasma; read-out: AUC0-t
quantity: AUC(0-t) (ng·h/mL)

* OCCn1cc(-c2ccc(N3CCC([C@H]4c5c(F)cccc5-c5cncn54)CC3)cc2)cn1 [SHR9146] | 6760

###

- assayDetails: Plasma pharmacokinetics of SHR9146 in mice (LC-MS/MS, non-compartmental analysis)
- Type: in vivo, ICR mice
- measurementParameters: both sexes, ICR, mouse, plasma, oral, 80 mg/kg, 80 mg/kg i.g. single; 6 h; read-out: plasma drug concentration, mean (n=6)
- Protocol: ICR mice with body weight 16–26 g were supplied by Shanghai Lingchang Biotechnology Co., Ltd. (animal breeding license number SCXK (Shanghai) 2013-0018) and housed at Shanghai Institute of Materia Medica, Chinese Academy of Sciences [animal use license number SYXK (Shanghai) 2015-0027]. The mice used in this study were fasted overnight for 12 h but had free access to water. Food was supplied 4 h post-dose. […]
quantity: concentration at 6 h (ng/mL)

* OCCn1cc(-c2ccc(N3CCC([C@H]4c5c(F)cccc5-c5cncn54)CC3)cc2)cn1 | 2260

###

- assayDetails: Plasma pharmacokinetics of SHR9146 in mice (LC-MS/MS, non-compartmental analysis)
- Type: in vivo, ICR mice
- measurementParameters: both sexes, ICR, mouse, plasma, po, 20 mg/kg, 20 mg/kg i.g. single dose; all mice (Totol, 3 male + 3 female); plasma; read-out: Tmax
quantity: Tmax

• OCCn1cc(-c2ccc(N3CCC([C@H]4c5c(F)cccc5-c5cncn54)CC3)cc2)cn1 = 27.5 min

###

- assayDetails: Plasma pharmacokinetics of SHR9146 in mice (LC-MS/MS, non-compartmental analysis)
- Format: in vivo, ICR mice
- measurementParameters: both sexes, ICR, mouse, plasma, po, 20 mg/kg, 20 mg/kg i.g. bid, 7 days (7th-day steady state); all mice (Totol, 3 male + 3 female); plasma
quantity: AUC(0-inf) (ng·h/mL)

* OCCn1cc(-c2ccc(N3CCC([C@H]4c5c(F)cccc5-c5cncn54)CC3)cc2)cn1 | 24400

###

- assayDetails: Plasma pharmacokinetics of SHR9146 in mice (LC-MS/MS, non-compartmental analysis)
- Format: in vivo, ICR mice
- measurementParameters: both sexes, ICR, mouse, plasma, oral, 20 mg/kg, 20 mg/kg i.g. single; 3 h; read-out: plasma drug concentration, mean (n=6)
quantity: concentration at 3 h (ng/mL)

- OCCn1cc(-c2ccc(N3CCC([C@H]4c5c(F)cccc5-c5cncn54)CC3)cc2)cn1 [SHR9146]: 2950

###

- assayDetails: Plasma pharmacokinetics of SHR9146 in mice (LC-MS/MS, non-compartmental analysis)
- Assay type: in vivo, ICR mice
- measurementParameters: ICR, mouse, iv; 5 mg/kg i.v. single dose; female mice; plasma; read-out: Vd
quantity: Vd (L/kg)

• OCCn1cc(-c2ccc(N3CCC([C@H]4c5c(F)cccc5-c5cncn54)CC3)cc2)cn1 = 0.638

###

- assayDetails: Tissue distribution of SHR9146 in mice after oral gavage of 40 mg/kg
- Format: in vivo, ICR mice
- measurementParameters: female, ICR, mouse, brain, po, 40 mg/kg, female, 1 h, 40 mg/kg oral gavage, individual mice; read-out: SHR9146 concentration in Brain
quantity: concentration at 1 h (ng/g)

* OCCn1cc(-c2ccc(N3CCC([C@H]4c5c(F)cccc5-c5cncn54)CC3)cc2)cn1 | 2190

###

- assayDetails: Tissue distribution of SHR9146 in mice after oral gavage of 40 mg/kg
- Type: in vivo, ICR mice
- measurementParameters: female, ICR, mouse, whole blood, po, 40 mg/kg, female, 6 h, 40 mg/kg oral gavage, Mean (n=3); read-out: SHR9146 concentration in Whole blood
quantity: concentration at 6 h (ng/mL)

- OCCn1cc(-c2ccc(N3CCC([C@H]4c5c(F)cccc5-c5cncn54)CC3)cc2)cn1: 298

###

- assayDetails: Tissue distribution of SHR9146 in mice after oral gavage of 40 mg/kg
- Assay type: in vivo, ICR mice
- measurementParameters: female, ICR, mouse, pancreas, po, 40 mg/kg, female, 1 h, 40 mg/kg oral gavage, Mean (n=3); read-out: SHR9146 concentration in Pancreas
quantity: concentration at 1 h (ng/g)

* OCCn1cc(-c2ccc(N3CCC([C@H]4c5c(F)cccc5-c5cncn54)CC3)cc2)cn1 [SHR9146] | 18000

###

- assayDetails: Tissue distribution of SHR9146 in mice after oral gavage of 40 mg/kg
- Type: in vivo, ICR mice
- measurementParameters: male, ICR, mouse, pancreas, po, 40 mg/kg, male, 6 h, 40 mg/kg oral gavage, individual mice; read-out: SHR9146 concentration in Pancreas
quantity: concentration at 6 h (ng/g)

* OCCn1cc(-c2ccc(N3CCC([C@H]4c5c(F)cccc5-c5cncn54)CC3)cc2)cn1 [SHR9146] | 74

###

- assayDetails: Tissue distribution of SHR9146 in mice after oral gavage of 40 mg/kg
- Format: in vivo, ICR mice
- measurementParameters: female, ICR, mouse, uterus, po, 40 mg/kg, female, 6 h, 40 mg/kg oral gavage, Mean (n=3); read-out: SHR9146 concentration in Uterus
quantity: concentration at 6 h (ng/g)

• OCCn1cc(-c2ccc(N3CCC([C@H]4c5c(F)cccc5-c5cncn54)CC3)cc2)cn1 = 363

###

- assayDetails: Tissue distribution of SHR9146 in mice after oral gavage of 40 mg/kg
- Assay type: in vivo, ICR mice
- measurementParameters: female, ICR, mouse, skin, po, 40 mg/kg, female, 3 h, 40 mg/kg oral gavage, Mean (n=3); read-out: SHR9146 concentration in Skin
quantity: concentration at 3 h (ng/g)

- OCCn1cc(-c2ccc(N3CCC([C@H]4c5c(F)cccc5-c5cncn54)CC3)cc2)cn1: 7700

###

- assayDetails: Tissue distribution of SHR9146 in mice after oral gavage of 40 mg/kg
- Assay type: in vivo, ICR mice
- measurementParameters: male, ICR, mouse, plasma, po, 40 mg/kg, male, 6 h, 40 mg/kg oral gavage, Mean (n=3); read-out: SHR9146 concentration in Plasma
quantity: concentration at 6 h (ng/mL)

- OCCn1cc(-c2ccc(N3CCC([C@H]4c5c(F)cccc5-c5cncn54)CC3)cc2)cn1: 49

###

- assayDetails: Plasma pharmacokinetics of SHR9146 in mice (LC-MS/MS, non-compartmental analysis)
- Assay type: in vivo, ICR mice
- measurementParameters: both sexes, ICR, mouse, plasma, po, oral 20 to 80 mg/kg pooled; mouse plasma; n=6; read-out: Tmax, post-oral
quantity: Tmax (min)

• OCCn1cc(-c2ccc(N3CCC([C@H]4c5c(F)cccc5-c5cncn54)CC3)cc2)cn1 = 47.4

###

- assayDetails: Plasma pharmacokinetics of SHR9146 in mice (LC-MS/MS, non-compartmental analysis)
- Format: in vivo, ICR mice
- measurementParameters: male, ICR, mouse, plasma, iv, 5 mg/kg, 5 mg/kg i.v. single dose; male mice; plasma; read-out: AUC0-t
quantity: AUC(0-t) (ng·h/mL)

• OCCn1cc(-c2ccc(N3CCC([C@H]4c5c(F)cccc5-c5cncn54)CC3)cc2)cn1 = 6730

###

- assayDetails: Tissue distribution of SHR9146 in mice after oral gavage of 40 mg/kg
- Type: in vivo, ICR mice
- measurementParameters: male, ICR, mouse, abdominal fat, po, 40 mg/kg, male, 3 h, 40 mg/kg oral gavage, Mean (n=3); read-out: SHR9146 concentration in Abdominal fat
- Experimental: ICR mice with body weight 16–26 g were supplied by Shanghai Lingchang Biotechnology Co., Ltd. (animal breeding license number SCXK (Shanghai) 2013-0018) and housed at Shanghai Institute of Materia Medica, Chinese Academy of Sciences [animal use license number SYXK (Shanghai) 2015-0027]. The mice used in this study were fasted overnight for 12 h but had free access to water. Food was supplied 4 h post-dose. […]
quantity: concentration at 3 h (ng/g)

* OCCn1cc(-c2ccc(N3CCC([C@H]4c5c(F)cccc5-c5cncn54)CC3)cc2)cn1 | 4070
